These measurements were taken from patent US20240174631A1.

Target: FGF2 (Homo sapiens)
Construct: made in house; host or cells: Escherichia coli BL21 (DE3) Star
Assay: Thermal shift assay (TSA) of FGFR1/FGF2 complex, FGF2 melting peak
Format: binding
Conditions: 25 μM compound
reportedMetric: ΔTm at 25 µM (°C)

Below: 2 molecules and their reported ΔTm at 25 µM.
Fc1ccc2c(c1)CCN(C1CCN(C(c3ccccc3)c3ccccc3)CC1)C2 [Compound 6]	0
c1ccc(C(c2ccccc2)N2CCC(N3CCc4cccnc4C3)CC2)cc1 [Compound 14]	-3.3

[1] Clc1ccc2c(c1)CCN(C1CCN(C(c3ccccc3)c3ccccc3)CC1)C2 [Compound 5]
[2] N#Cc1ccc2c(c1)CCN(C1CCN(C(c3ccccc3)c3ccccc3)CC1)C2 [Compound 3]
[3] c1ccc(C(c2ccccc2)N2CCC(N3CCc4cnccc4C3)CC2)cc1 [Compound 19]
Input line: Rank the 3 molecules: largest ΔTm at 25 µM first, smallest last. Form entry: labels listed in requested order.
Output line: 2, 1, 3

* * *

Molecular target: FGFR1 (Homo sapiens)
Assay: Thermal shift assay (TSA) of FGFR1/FGF2 complex, FGFR1 melting peak
Format: binding
Design: made in house; host or cells: Escherichia coli BL21 (DE3) Star
Settings: 2 μM compound; FGF2/FGFR1 complex
reportedMetric: ΔTm at 2 µM (°C)

Below: 3 compounds and their reported ΔTm at 2 µM.
CCN(CC)c1ccc2c(c1)CCN(C1CCN(Cc3ccc(F)cc3)CC1)C2 [Compound 85]	14
Fc1cccc2c1CCN(C1CN(C(c3ccccc3)c3ccccc3)C1)C2 [Compound 38]	9.8
c1ccc(C(c2ccccc2)N2CCC(N3CCc4ccncc4C3)CC2)cc1 [Compound 4]	14.5

[P] FC1(F)CN(C2CCN(C(c3ccccc3)c3ccccc3)CC2)Cc2ccccc21 [Compound 21]
[Q] CCN(CC)c1ccc2c(c1)CCN(C1CCN(C(c3ccccc3)c3ccccc3)CC1)C2 [Compound 2]
Input line: Which record shows the lower ΔTm at 2 µM: the first, P , or the second, Q ? To answer, give the label that identifies your chosen option.
Output line: Q

* * *

Target: FGF2 (Homo sapiens, UniProt P09038)
Construct: made in house; host or cells: Escherichia coli BL21 (DE3) Star
Sequence (P09038 156-288 limits assumed): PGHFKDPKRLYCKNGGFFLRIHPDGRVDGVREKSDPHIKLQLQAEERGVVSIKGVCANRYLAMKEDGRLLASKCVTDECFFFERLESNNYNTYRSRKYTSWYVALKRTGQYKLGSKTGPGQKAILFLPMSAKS
Sequence (P11362 142-365 partner limits assumed): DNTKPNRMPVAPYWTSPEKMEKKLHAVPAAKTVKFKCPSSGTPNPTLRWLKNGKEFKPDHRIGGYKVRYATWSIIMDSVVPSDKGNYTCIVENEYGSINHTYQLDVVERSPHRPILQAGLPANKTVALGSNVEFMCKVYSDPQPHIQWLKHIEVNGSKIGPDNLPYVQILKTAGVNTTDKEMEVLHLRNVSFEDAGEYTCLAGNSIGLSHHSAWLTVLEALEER
Test: Thermal shift assay (TSA) of FGFR1/FGF2 complex, FGF2 melting peak
Format: binding
Details: 2 μM compound
reportedMetric: ΔTm at 2 µM (°C)

FC1(F)CN(C2CCN(C(c3ccccc3)c3ccccc3)CC2)Cc2ccccc21	-3.6
c1ccc(C(c2ccccc2)N2CCC(N3CCc4ccncc4C3)CC2)cc1	-2.2
CCN(CC)c1ccc2c(c1)CCN(C1CCN(C(c3ccccc3)c3ccccc3)CC1)C2	-2.5

[P] Fc1cccc2c1CCN(C1CN(C(c3ccccc3)c3ccccc3)C1)C2
[Q] CCN(CC)c1ccc2c(c1)CCN(C1CCN(Cc3ccc(F)cc3)CC1)C2
Input line: Kindly identify which of P and Q has the larger recorded ΔTm at 2 µM value. To answer, give the label that identifies your chosen option.
Output line: Q
(Q: 0 °C, P: -2.7 °C)

* * *

Target: FGFR1 (Homo sapiens, UniProt P11362)
Sequence (P11362 142-365 limits assumed): as the sequence (P11362 142-365 partner limits assumed) above
Sequence (P09038 156-288 partner limits assumed): as the sequence (P09038 156-288 limits assumed) above
Assay: Thermal shift assay (TSA) of FGFR1/FGF2 complex, FGFR1 melting peak
Format: binding
Set-up: made in house; host or cells: Escherichia coli BL21 (DE3) Star
Settings: 10 μM compound; FGF2/FGFR1 complex
Description: TSA was utilized to biophysically characterize the recombinant human FGFR1/FGF2 complex in the presence or absence of compounds. The assay functions by protein denaturation over a temperature gradient. During protein unfolding, exposed hydrophobic regions bind a dye and fluoresce due to solvent relaxation effects. Changes in the melting temperature of the protein complex in the presence of each compound were monitored and compounds were screened/ranked using this method. […]
reportedMetric: ΔTm at 10 µM (°C)

Fc1ccc2c(c1)CN(C1CCN(C(c3ccccc3)c3ccccc3)CC1)CC2	3.3

[I] Brc1ccc2c(c1)CCN(C1CCN(C(c3ccccc3)c3ccccc3)CC1)C2
[II] Fc1cccc2c1CCN(C1CCN(C(c3ccccc3)c3ccccc3)CC1)C2
[III] CCN(CC)c1ccc2c(c1)CCN(C1CCN(C(c3ccccc3)c3ccccc3)CC1)C2
[IV] c1ccc(C(c2ccccc2)N2CCC(N3CCc4ncccc4C3)CC2)cc1
Input line: Arrange these 4 compounds in increasing order of ΔTm at 10 µM. Form entry: labels listed in requested order.
Output line: I, IV, III, II

* * *

Biological target: UniProt P11362
Experiment: Thermal shift assay (TSA) of FGFR1/FGF2 complex, FGFR1 melting peak
Type: binding
Design: made in house; host or cells: Escherichia coli BL21 (DE3) Star
Conditions: 100 μM compound; FGF2/FGFR1 complex
From the text: TSA was utilized to biophysically characterize the recombinant human FGFR1/FGF2 complex in the presence or absence of compounds. The assay functions by protein denaturation over a temperature gradient. During protein unfolding, exposed hydrophobic regions bind a dye and fluoresce due to solvent relaxation effects. Changes in the melting temperature of the protein complex in the presence of each compound were monitored and compounds were screened/ranked using this method. […]
reportedMetric: ΔTm at 100 µM (°C)

Brc1ccc2c(c1)CCN(C1CN(C(c3ccccc3)c3ccccc3)C1)C2	6.6

[A] Brc1ccc2c(c1)CCN(C1CCN(C(c3ccccc3)c3ccccc3)CC1)C2
[B] Fc1cccc2c1CN(C1CCN(C(c3ccccc3)c3ccccc3)CC1)CC2
Input line: Kindly identify which of A and B has the larger recorded ΔTm at 100 µM value. To answer, give the label that identifies your chosen option.
Output line: A

[P] CCN(CC)c1ccc2c(c1)CCN(C1CN(C(c3ccccc3)c3ccccc3)C1)C2
[Q] Fc1ccc(CN2CCC(N3CCc4cc(Br)ccc4C3)CC2)cc1
Input line: Kindly identify which of P and Q has the larger recorded ΔTm at 100 µM value. To answer, give the label that identifies your chosen option.
Output line: Q
(Q: 0.3 °C, P: -0.5 °C)

* * *

Target: FGF2 (Homo sapiens)
Construct: made in house; host or cells: Escherichia coli BL21 (DE3) Star
Test: Thermal shift assay (TSA) of FGFR1/FGF2 complex, FGF2 melting peak
Format: binding
Settings: 10 μM compound
reportedMetric: ΔTm at 10 µM (°C)

Below: 3 molecules and their reported ΔTm at 10 µM.
CCN(CC)c1ccc2c(c1)CCN(C1CCN(C(c3ccccc3)c3ccccc3)CC1)C2	-3
Fc1cccc2c1CCN(C1CCN(C(c3ccccc3)c3ccccc3)CC1)C2	-0.2
Brc1ccc2c(c1)CCN(C1CCN(C(c3ccccc3)c3ccccc3)CC1)C2	-1.5

[A] Fc1ccc2c(c1)CN(C1CCN(C(c3ccccc3)c3ccccc3)CC1)CC2
[B] c1ccc(C(c2ccccc2)N2CCC(N3CCc4ncccc4C3)CC2)cc1
Input line: Kindly identify which of A and B has the larger recorded ΔTm at 10 µM value. To answer, give the label that identifies your chosen option.
Output line: A
(A: -0.5 °C, B: -2.7 °C)

* * *

Biological target: FGFR1 (Homo sapiens, UniProt P11362)
Experiment: Thermal shift assay (TSA) of FGFR1/FGF2 complex, FGFR1 melting peak
Type: binding
Set-up: made in house; host or cells: Escherichia coli BL21 (DE3) Star
Conditions: 25 μM compound; FGF2/FGFR1 complex
reportedMetric: ΔTm at 25 µM (°C)

Below: 3 compounds and their reported ΔTm at 25 µM.
N#Cc1ccc2c(c1)CCN(C1CCN(C(c3ccccc3)c3ccccc3)CC1)C2 [Compound 3]	0
c1ccc(C(c2ccccc2)N2CCC(N3CCc4cnccc4C3)CC2)cc1 [Compound 19]	2.8
Fc1ccc2c(c1)CCN(C1CCN(C(c3ccccc3)c3ccccc3)CC1)C2 [Compound 6]	1.5

[1] Clc1ccc2c(c1)CCN(C1CCN(C(c3ccccc3)c3ccccc3)CC1)C2 [Compound 5]
[2] c1ccc(C(c2ccccc2)N2CCC(N3CCc4cccnc4C3)CC2)cc1 [Compound 14]
Input line: Kindly identify which of 1 and 2 has the larger recorded ΔTm at 25 µM value. To answer, give the label that identifies your chosen option.
Output line: 2

* * *

Biological target: FGF2 (Homo sapiens, UniProt P09038)
Construct: made in house; host or cells: Escherichia coli BL21 (DE3) Star
Assay: Thermal shift assay (TSA) of FGFR1/FGF2 complex, FGF2 melting peak
Type: binding
Conditions: 100 μM compound
reportedMetric: ΔTm at 100 µM (°C)

Fc1cccc2c1CN(C1CCN(C(c3ccccc3)c3ccccc3)CC1)CC2	0
Fc1ccc(CN2CCC(N3CCc4cc(Br)ccc4C3)CC2)cc1	0

[1] CCN(CC)c1ccc2c(c1)CCN(C1CN(C(c3ccccc3)c3ccccc3)C1)C2
[2] Brc1ccc2c(c1)CCN(C1CN(C(c3ccccc3)c3ccccc3)C1)C2
[3] Brc1ccc2c(c1)CCN(C1CCN(C(c3ccccc3)c3ccccc3)CC1)C2
Input line: Rank the 3 molecules: largest ΔTm at 100 µM first, smallest last. Form entry: labels listed in requested order.
Output line: 1, 3, 2
